# Test Name: Intestinal (duodenum) administration of doxorubicin with peptide or peptide dimer in rats, doxorubicin blood concentration
# Stated Conditions: rat, in vivo, 10 mg/kg
Bridge positions count the residues as written; N and C are the ends. Square brackets hold non-standard residues; d marks the D form. Peptide text beside a SMILES is read from it. I, II: the chains in the order shown.
Readout Type: AUC(0-t)
Kindly format the answer as number then unit.

[Q] Using the record for CC[C@@H](C)[C@@H](NC(=O)[C@@H](CSSC[C@H](NC(=O)[C@H](N)Cc1ccccc1)C(=O)N[C@H](C(=O)NCC(=O)N[C@@H](CCCNC(=N)N)C(=O)N[C@@H](CC(C)C)C(N)=O)[C@@H](C)CC)NC(=O)[C@@H](N)Cc1ccccc1)C(=O)NCC(=O)N[C@H](CCCNC(=N)N)C(=O)N[C@H](CC(C)C)C(N)=O [Example 3, FCIGRL-NH2 Dimer] (I: H-F[dC][dI]G[dR][dL]-NH2 / II: H-[dF]CIGRL-NH2; disulfide I:2-II:2) , state its measured AUC(0-t).
[A] 174 ng·h/mL

* * *

# Stated Conditions: rat, plasma, 10 mg/kg
Bridge positions count the residues as written; N and C are the ends. Square brackets hold non-standard residues; d marks the D form. Peptide text beside a SMILES is read from it. I, II: the chains in the order shown.
Readout Type: AUC(0-t) (ng·h/mL)
Express it in ng·h/mL; write the number only.

[Q] For the compound CC[C@@H](C)[C@@H](NC(=O)[C@@H](CSSC[C@H](NC(=O)[C@H](N)Cc1ccccc1)C(=O)N[C@H](C(=O)NCC(=O)N[C@@H](CCCNC(=N)N)C(=O)N[C@@H](CC(C)C)C(N)=O)[C@@H](C)CC)NC(=O)[C@@H](N)Cc1ccccc1)C(=O)NCC(=O)N[C@H](CCCNC(=N)N)C(=O)N[C@H](CC(C)C)C(N)=O [Example 3, FCIGRL-NH2 Dimer] (I: H-F[dC][dI]G[dR][dL]-NH2 / II: H-[dF]CIGRL-NH2; disulfide I:2-II:2) , report AUC(0-t).
[A] 343
